assayed.target: Dual specificity protein phosphatase 6 (Rattus norvegicus) (UniProt Q64346)
Sequence (Q64346 whole entry, looked up): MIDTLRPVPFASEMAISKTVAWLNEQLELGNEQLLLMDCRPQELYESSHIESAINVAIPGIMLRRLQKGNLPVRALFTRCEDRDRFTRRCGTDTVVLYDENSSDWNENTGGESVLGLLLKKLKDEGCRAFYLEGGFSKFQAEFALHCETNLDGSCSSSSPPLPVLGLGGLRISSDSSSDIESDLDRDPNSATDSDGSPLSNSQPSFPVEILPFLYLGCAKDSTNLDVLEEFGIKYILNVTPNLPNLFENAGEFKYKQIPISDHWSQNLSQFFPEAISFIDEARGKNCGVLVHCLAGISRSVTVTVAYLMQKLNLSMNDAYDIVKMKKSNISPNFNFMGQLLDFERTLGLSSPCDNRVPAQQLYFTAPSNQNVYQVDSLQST
protocol.description: MKP-3 phosphatase inhibitors, primary screen, biochemical, rat enzyme, in vitro (AID 425)
measurement.setup: recombinant MKP-3 phosphatase activity, fluorescence; at 20 µM
Out of some 110,000 compounds screened, about 190 (0.17%) were called active. Rule as the data show it: active = inhibition above about 50%; inactive = the rest. This excerpt belongs to a sample that is enriched for actives. Entries with a potency or affinity are not part of this list.
Classes used: active, inactive

# molecule, assigned.label
rows = [
    ("O=C(Nc1ccc(-c2cn3ccsc3n2)cc1)C1COc2ccccc2O1 (stereo unspecified)", "inactive"),
    ("CC(c1nc2ccccc2n1C)C(O)c1ccccc1 (stereo unspecified)", "inactive"),
    ("COc1ccc(Br)c(C=Nc2cccc3nsnc23)c1O", "inactive"),
    ("Oc1c(Br)ccc(Cl)c1C=Nc1cccc2nsnc12", "active"),
    ("CN1CCN(CCCn2cnc3c(=O)oc4ccccc4c32)CC1", "inactive"),
    ("O=C(O)COc1ccc2c(=O)c(-c3ccc(Cl)cc3)coc2c1", "inactive"),
]

Data origin: PubChem BioAssay AID425
